Biological target: Tyrosine-protein kinase JAK3 (Homo sapiens, UniProt P52333)
Sequence (P52333 whole entry): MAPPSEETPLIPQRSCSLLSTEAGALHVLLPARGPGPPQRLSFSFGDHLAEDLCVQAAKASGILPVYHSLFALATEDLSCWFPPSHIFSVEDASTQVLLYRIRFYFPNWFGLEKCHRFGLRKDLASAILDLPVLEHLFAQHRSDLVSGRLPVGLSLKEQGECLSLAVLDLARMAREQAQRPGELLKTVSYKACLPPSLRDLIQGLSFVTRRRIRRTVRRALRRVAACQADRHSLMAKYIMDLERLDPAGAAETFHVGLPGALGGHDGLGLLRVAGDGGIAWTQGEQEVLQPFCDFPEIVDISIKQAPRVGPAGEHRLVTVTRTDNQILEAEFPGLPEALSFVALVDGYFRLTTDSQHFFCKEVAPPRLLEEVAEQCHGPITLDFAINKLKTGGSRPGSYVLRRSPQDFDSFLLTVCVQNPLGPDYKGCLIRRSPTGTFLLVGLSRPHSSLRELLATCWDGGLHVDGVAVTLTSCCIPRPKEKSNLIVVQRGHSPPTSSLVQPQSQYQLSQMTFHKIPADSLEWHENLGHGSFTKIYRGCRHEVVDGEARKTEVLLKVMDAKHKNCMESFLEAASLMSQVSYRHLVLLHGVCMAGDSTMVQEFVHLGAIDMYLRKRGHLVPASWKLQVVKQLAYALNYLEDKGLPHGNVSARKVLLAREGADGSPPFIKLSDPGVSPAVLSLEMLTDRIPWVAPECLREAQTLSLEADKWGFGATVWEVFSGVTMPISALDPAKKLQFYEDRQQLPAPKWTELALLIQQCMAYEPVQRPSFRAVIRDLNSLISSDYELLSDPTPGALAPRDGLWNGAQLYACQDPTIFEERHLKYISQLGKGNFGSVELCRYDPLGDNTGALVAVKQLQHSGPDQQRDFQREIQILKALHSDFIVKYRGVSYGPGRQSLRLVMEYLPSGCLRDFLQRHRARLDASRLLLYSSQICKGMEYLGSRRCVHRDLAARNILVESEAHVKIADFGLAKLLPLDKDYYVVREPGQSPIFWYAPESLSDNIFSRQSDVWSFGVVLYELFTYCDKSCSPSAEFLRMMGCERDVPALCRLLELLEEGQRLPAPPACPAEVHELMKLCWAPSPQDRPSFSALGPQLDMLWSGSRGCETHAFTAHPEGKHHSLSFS
Entry class follows IC50: low = under 10 nM, mid = from 10 nM up to 40 nM, high = 40 nM and over

Examples from the recorded data:
C[C@@]1(C#N)CCC[C@H]1Nc1c(C(N)=O)cnn2cccc12 (racemic): high
C[C@@]1(O)CCC[C@H]1Nc1c(C(N)=O)cnn2cccc12 (racemic): high
C[C@@]1(CO)CCC[C@H]1Nc1c(C(N)=O)cnn2cccc12 (racemic): high

Hello team, could you let me know which band the following compound falls into: "CC1(C)CCC[C@H]1Nc1c(C(N)=O)cnn2cccc12"
low

Hello team, could you let me know which band the following compound falls into: CC1(C)C[C@@](C)(O)C[C@H]1Nc1c(C(N)=O)cnn2cccc12 (racemic)
mid

Hello team, could you let me know which band the following compound falls into: "CC1(C)[C@H](Nc2c(C(N)=O)cnn3cccc23)CC[C@@]1(C)N"
mid

Hello team, could you let me know which band the following compound falls into: "C[C@]1(F)CCC[C@H]1Nc1c(C(N)=O)cnn2cccc12"
low

Hello team, could you let me know which band the following compound falls into: C[C@@]1(F)CCC[C@H]1Nc1c(C(N)=O)cnn2cccc12 (racemic)
high

Hello team, could you let me know which band the following compound falls into: CC1(C)[C@@H](N)CC[C@H]1Nc1c(C(N)=O)cnn2cccc12 (racemic)
mid

Hello team, could you let me know which band the following compound falls into: CC1(C)[C@H](N)CC[C@H]1Nc1c(C(N)=O)cnn2cccc12 (racemic)
mid

Hello team, could you let me know which band the following compound falls into: CC1(C)[C@H](Nc2c(C(N)=O)cnn3cccc23)CC[C@]1(C)O (racemic)
mid

Hello team, could you let me know which band the following compound falls into: CC1(C)[C@H](Nc2c(C(N)=O)cnn3cccc23)CC[C@@]1(C)O (racemic)
low
